Test system: Pu22 (DNA, G4) TGAGGGTGGGTAGGGTGGGTAA
Assay info: fluorescent intercalator displacement (FID)
Design: unit not given here
Condition summary: thiazole orange displaced
Would you please tag the item yes when its Pu22DC50 is 90 or above, and no when it is below?

* CS(C)=O.O=C1c2c([c-]ccc2Cl)-c2nccc3cccc1c23.[Cl-].[Pt+2] | yes
* Nc1ccc2ccnc3c2c1C(=O)c1ccccc1-3.[Cl-].[Cl-].[Pd+2] | no
* Nc1ccc2ccnc3c2c1C(=O)c1ccccc1-3.[Cl-].[Cl-].[Ni+2] | no

###

Parameter: ds26DC50. Scope: all listed entries.
System: ds26 (DNA, duplex) CAATCGGATCGAATTCGATCCGATTG
Assay info: fluorescent intercalator displacement (FID)
Set-up: unit not given here
Condition summary: thiazole orange displaced
Quantity kind: ds26DC50

• Nc1ccc2ccnc3c2c1C(=O)c1ccccc1-3.[Cl-].[Cl-].[Ni+2] = 37.01
• Nc1ccc2ccnc3c2c1C(=O)c1ccccc1-3.[Cl-].[Cl-].[Pd+2] = 21.76
• CS(C)=O.O=C1c2c([c-]ccc2Cl)-c2nccc3cccc1c23.[Cl-].[Pt+2] = 96.11
• Nc1cccc2c1C(=O)c1cccc3ccnc-2c13.[Cl-].[Cl-].[Pd+2] = 90.63
• COC1c2c([c-]ccc2Cl)-c2nccc3cccc1c23.CS(C)=O.[Cl-].[Pt+2] (centres unmarked) = 91.48

###

System: HL-7702 cells
Assay info: MTT cytotoxicity assay, normal cell line
Assay type: cell-based, human
Condition summary: HL-7702, 48 h; footnote a: 20 μM; footnotes b, c (salts, cisplatin) cut off
Would you please tag the item Satisfied when its Inhibitory rates (%) is 20% or above, and Not satisfied when it is below?

* N.N.[Cl][Pt][Cl] [Cisplatin, cisplatin, reference compound] | Satisfied
* O=C1c2c(Cl)cc[c]3c2-c2c4c1cccc4cc[n+]2[Pt-2]31[NH2+]CCC[NH2+]1.[Cl-] (centres unmarked) [compound 9, [Pt(L^c)(pn)]Cl] | Satisfied
* NCCN [en, 1,2-ethylenediamine, reference compound] | Not satisfied
* O.O.O.O.O.O.[Cl][Ni][Cl] [NiCl2·6H2O, reference compound] | Not satisfied
* [Cl][Pd][Cl] [PdCl2, reference compound] | Not satisfied

###

Parameter: Pu27DC50. Scope: all listed entries.
System: Pu27 (DNA, G4) TGGGGAGGGTGGGGAGGGTGGGGAAGG
Assay info: fluorescent intercalator displacement (FID)
Design: unit not given here
Condition summary: thiazole orange displaced
Quantity kind: Pu27DC50

* Nc1cccc2c1C(=O)c1cccc3ccnc-2c13.[Cl-].[Cl-].[Ni+2] | 14.22
* CS(C)=O.O=C1c2c([c-]ccc2Cl)-c2nccc3cccc1c23.[Cl-].[Pt+2] | 60.02
* Nc1ccc2ccnc3c2c1C(=O)c1ccccc1-3.[Cl-].[Cl-].[Pd+2] | 3.88
* Nc1ccc2ccnc3c2c1C(=O)c1ccccc1-3.[Cl-].[Cl-].[Ni+2] | 1.31
* Nc1cccc2c1C(=O)c1cccc3ccnc-2c13.[Cl-].[Cl-].[Pd+2] | 42.51

###

Test system: HTG21 (DNA, G4) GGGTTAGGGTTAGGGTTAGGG
Assay info: fluorescent intercalator displacement (FID)
Parameters: unit not given here
Condition summary: thiazole orange displaced
Parameter: HTG21DC50. Scope: all listed entries.
Quantity kind: HTG21DC50

• Nc1cccc2c1C(=O)c1cccc3ccnc-2c13.[Cl-].[Cl-].[Pd+2] = 49.08
• CS(C)=O.O=C1c2c([c-]ccc2Cl)-c2nccc3cccc1c23.[Cl-].[Pt+2] = 70.83
• Nc1ccc2ccnc3c2c1C(=O)c1ccccc1-3.[Cl-].[Cl-].[Ni+2] = 3.35
• COC1c2c([c-]ccc2Cl)-c2nccc3cccc1c23.CS(C)=O.[Cl-].[Pt+2] (centres unmarked) = 55.16
• Nc1ccc2ccnc3c2c1C(=O)c1ccccc1-3.[Cl-].[Cl-].[Pd+2] = 3.91

###

Test system: c-kit-2 (DNA, G4) CGGGCGGGCGCTAGGGAGGGT
Assay info: fluorescent intercalator displacement (FID)
Design: unit not given here
Condition summary: thiazole orange displaced
Labelling field: enter satisfied if recorded c-kit-2DC50 is less than 80. Enter not satisfied if it equals or exceeds that cut-off.

• Nc1cccc2c1C(=O)c1cccc3ccnc-2c13.[Cl-].[Cl-].[Ni+2] = satisfied
• Nc1ccc2ccnc3c2c1C(=O)c1ccccc1-3.[Cl-].[Cl-].[Ni+2] = satisfied
• Nc1cccc2c1C(=O)c1cccc3ccnc-2c13.[Cl-].[Cl-].[Pd+2] = not satisfied
• Nc1ccc2ccnc3c2c1C(=O)c1ccccc1-3.[Cl-].[Cl-].[Pd+2] = satisfied
• CS(C)=O.O=C1c2c([c-]ccc2Cl)-c2nccc3cccc1c23.[Cl-].[Pt+2] = not satisfied

###

Test system: c-kit-1 (DNA, G4) CGGGCGGGCACGAGGGAGGGT
Assay info: fluorescent intercalator displacement (FID)
Parameters: unit not given here
Condition summary: thiazole orange displaced
Quantity kind: c-kit-1DC50

- Nc1ccc2ccnc3c2c1C(=O)c1ccccc1-3.[Cl-].[Cl-].[Pd+2]: 18.75
- Nc1cccc2c1C(=O)c1cccc3ccnc-2c13.[Cl-].[Cl-].[Pd+2]: 78.46
- Nc1ccc2ccnc3c2c1C(=O)c1ccccc1-3.[Cl-].[Cl-].[Ni+2]: 9.11
- CS(C)=O.O=C1c2c([c-]ccc2Cl)-c2nccc3cccc1c23.[Cl-].[Pt+2]: 90.02
- Nc1cccc2c1C(=O)c1cccc3ccnc-2c13.[Cl-].[Cl-].[Ni+2]: 73.65

###

System: SK-OV-3 cells
Assay info: MTT cytotoxicity assay
Assay type: cell-based, human
Condition summary: SK-OV-3, 48 h; footnote a: 20 μM; footnotes b, c (salts, cisplatin) cut off
Labelling field: enter 1 (yes) if recorded Inhibitory rates (%) is less than 20%. Enter 0 (no) if it equals or exceeds that cut-off.

- NCCN [en, 1,2-ethylenediamine, reference compound]: 1 (yes)
- O.O.O.O.O.O.[Cl][Ni][Cl] [NiCl2·6H2O, reference compound]: 0 (no)
- N.N.[Cl][Pt][Cl] [Cisplatin, cisplatin, reference compound]: 0 (no)
- [Cl][Pd][Cl] [PdCl2, reference compound]: 1 (yes)
- O=C1c2c(Cl)cc[c]3c2-c2c4c1cccc4cc[n+]2[Pt-2]31[NH2+]CCC[NH2+]1.[Cl-] (centres unmarked) [compound 9, [Pt(L^c)(pn)]Cl]: 0 (no)
